The reported measurements were obtained from patent US6872803B1.

# tested target: prolyl-endopeptidase (Elizabethkingia meningoseptica)
# Sequence (P27028 21-705): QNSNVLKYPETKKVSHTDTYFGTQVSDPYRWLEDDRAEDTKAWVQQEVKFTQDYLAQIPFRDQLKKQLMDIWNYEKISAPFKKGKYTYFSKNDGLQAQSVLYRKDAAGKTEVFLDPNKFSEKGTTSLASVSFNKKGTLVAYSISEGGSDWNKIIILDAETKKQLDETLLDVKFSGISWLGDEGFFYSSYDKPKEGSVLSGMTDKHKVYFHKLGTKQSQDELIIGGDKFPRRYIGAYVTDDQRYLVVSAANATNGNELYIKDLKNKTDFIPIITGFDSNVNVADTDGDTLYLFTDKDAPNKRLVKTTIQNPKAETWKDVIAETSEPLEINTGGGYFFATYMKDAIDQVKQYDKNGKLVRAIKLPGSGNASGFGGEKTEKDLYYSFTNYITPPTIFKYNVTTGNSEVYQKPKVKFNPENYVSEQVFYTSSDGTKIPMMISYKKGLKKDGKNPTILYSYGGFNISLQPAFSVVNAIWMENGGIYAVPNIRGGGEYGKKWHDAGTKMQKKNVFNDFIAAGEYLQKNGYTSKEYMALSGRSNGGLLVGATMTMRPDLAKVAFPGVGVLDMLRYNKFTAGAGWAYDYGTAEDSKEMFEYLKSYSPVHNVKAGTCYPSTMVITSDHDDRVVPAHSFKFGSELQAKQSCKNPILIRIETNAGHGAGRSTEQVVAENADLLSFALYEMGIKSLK
# assay text: in vitro
# condition description: prolyl-endopeptidase in PBS(−) buffer, pH 7.2
experimental readout: half-life at 25 μg/ml

Which half-life at 25 μg/ml is reported with prolyl-endopeptidase (Elizabethkingia meningoseptica) for this entry: H-SMGLPCVVM-OH [Compound d, H-Ser-Met-Gly-Leu-Pro-Cys-Val-Val-Met-OH] ?
< 60 min

* * *

# System: trypsin
# assay text: in vitro
# condition description: trypsin (Sigma Co.), pH 7.2
Where a SMILES comes first, the peptide text is derived from it. Bridges are numbered along the chain shown (N, C = ends).
experimental readout: remaining at 9 h, 25 μg/ml

Which remaining at 9 h, 25 μg/ml reading was recorded for the compound CC(C)[C@H](NC(=O)[C@H](Cc1c[nH]c2ccccc12)NC(=O)[C@@H]1CC(=O)NCC(=O)N[C@@H](CC(N)=O)C(=O)N[C@@H](Cc2c[nH]c3ccccc23)C(=O)N[C@@H](Cc2c[nH]cn2)C(=O)NCC(=O)N[C@@H]([C@@H](C)O)C(=O)N[C@@H](C)C(=O)N2CCC[C@H]2C(=O)N1)C(=O)N[C@H](C(=O)NCC(=O)N[C@@H](CCCNC(=N)N)C(=O)NCC(=O)N[C@@H](CC(=O)O)C(=O)N[C@@H](CO)C(=O)N1CCC[C@H]1C(=O)N[C@@H](C)C(=O)O)[C@@H](C)O [Compound 1] (GNWHGTAPDWVTGRGDSPA-OH; lactam N-9) ?
~60%
